species: Rattus norvegicus; assay: DrugMatrix - Regimen: Daily Repeat; type: toxicity, organism-based, Sprague-Dawley; design: regimen Daily Repeat, gender Male, age 6-8 weeks; details: in vivo, po, 0 mg/kg, 72 h, tissue Blood, route oral GAVAGE, dose level Control, time 3 day, […]
Measured quantity: ERYTHROCYTE COUNT (x10E6/uL)

>>> value_reported("CC(=O)Nc1nnc(S(N)(=O)=O)s1 [ACETAZOLAMIDE]")
5.6
>>> value_reported("C#C[C@]1(O)CC[C@H]2[C@@H]3CCc4cc(O)ccc4[C@H]3CC[C@@]21C")
5.35
>>> value_reported("COc1ncnc(NS(=O)(=O)c2ccc(N)cc2)c1OC")
5.6
>>> value_reported("CC[C@H](C)C(=O)O[C@H]1C[C@@H](C)C=C2C=C[C@H](C)[C@H](CC[C@@H]3C[C@@H](O)CC(=O)O3)[C@H]21")
5.03
>>> value_reported("NC[C@@H]1O[C@H](O[C@H]2[C@@H](O)[C@H](O[C@@H]3[C@@H](O)[C@H](N)C[C@H](N)[C@H]3O[C@H]3O[C@H](CN)[C@@H](O)[C@H](O)[C@H]3N)O[C@@H]2CO)[C@H](N)[C@@H](O)[C@@H]1O")
5.46
>>> value_reported("OCCN1CCN(CCCN2c3ccccc3Sc3ccc(C(F)(F)F)cc32)CC1")
5.2
>>> value_reported("CC(CCc1ccc(O)cc1)NCCc1ccc(O)c(O)c1 (stereo unspecified)")
6.82
>>> value_reported("CN(CCOc1ccc(CC2SC(=O)NC2=O)cc1)c1ccccn1 (stereo unspecified)")
5.08
>>> value_reported("CC[C@H](C)C(=O)O[C@H]1C[C@H](O)C=C2C=C[C@H](C)[C@H](CC[C@@H](O)C[C@@H](O)CC(=O)O)[C@H]21")
5.08
>>> value_reported("CC(C)Cc1ccc(CC(=O)O)cc1")
5.58
>>> value_reported("CCn1cc(C(=O)O)c(=O)c2cc(F)c(N3CCNCC3)nc21")
5.35

* * *

organism: Rattus norvegicus; assay: DrugMatrix - Regimen: Daily Repeat; format: toxicity, organism-based, Sprague-Dawley; design: regimen Daily Repeat, gender Male, age 6-8 weeks; conditions: in vivo, po, 100 mg/kg, 120 h, tissue Plasma, route oral GAVAGE, dose level Low, time 5 day, vehicle .5 % CMC
Quick reference for GLUCOSE among some compounds
Measured quantity: GLUCOSE

>>> value_reported("CC[C@]1(O)CC[C@H]2[C@@H]3CCC4=CCCC[C@@H]4[C@H]3CC[C@@]21C")
"173.33 mg/dL"
>>> value_reported("Nc1nc2c(c(=O)[nH]1)N(C=O)C(CNc1ccc(C(=O)N[C@@H](CCC(=O)O)C(=O)O)cc1)CN2 (some centres undefined)")
"175.67 mg/dL"
>>> value_reported("CC=Cc1ccc(O)c(OC)c1")
"141 mg/dL"
>>> value_reported("C#C[C@]1(O)CC[C@H]2[C@@H]3CCC4=Cc5oncc5C[C@]4(C)[C@H]3CC[C@@]21C")
"144 mg/dL"

* * *

organism: Rattus norvegicus; assay: DrugMatrix - Regimen: Daily Repeat; assay type: toxicity, organism-based, Sprague-Dawley; set-up: regimen Daily Repeat, gender Male, age 6-8 weeks; settings: in vivo, po, 100 mg/kg, 120 h, tissue Blood, route oral GAVAGE, dose level Low, time 5 day, vehicle .5 % CMC
Quick reference for MEAN CORPUSCULAR HEMOGLOBIN CONCENTRATION among some compounds
Measured quantity: MEAN CORPUSCULAR HEMOGLOBIN CONCENTRATION (G/DL)

>>> value_reported("CC[C@]1(O)CC[C@H]2[C@@H]3CCC4=CCCC[C@@H]4[C@H]3CC[C@@]21C")
31.6
>>> value_reported("CC=Cc1ccc(O)c(OC)c1")
36.83
>>> value_reported("Nc1nc2c(c(=O)[nH]1)N(C=O)C(CNc1ccc(C(=O)N[C@@H](CCC(=O)O)C(=O)O)cc1)CN2 (some centres undefined)")
37.4
>>> value_reported("C#C[C@]1(O)CC[C@H]2[C@@H]3CCC4=Cc5oncc5C[C@]4(C)[C@H]3CC[C@@]21C")
39.57
